Value source: PubChem BioAssay (NCATS)

# Test Name: Cell Viability - MRC5 (AID 434);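 note: cells exposed to compound for 40 hours at 37 °C; potency reflects cytotoxicity seen as loss of intracellular ATP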
# Run Parameters: MRC5 lung fibroblast viability, qHTS
Records with an inconclusive call do not appear. Calls of active or inactive are those of the source. Calls come from the whole dose curve.
Outcomes you can answer with include only these: active, inactive

Prompt: Tell me the assay call for O=c1c(-c2ccc(O)cc2)coc2cc(O)ccc12 please.
Completion: inactive

---

# Test Name: Quantitative High-Throughput drug screen in 47 multiple myeloma cell lines against the NCATS MIPE library collection: KMS28BM_JCRB cell viability assay (AID 1919874); note: nearly all actives have a fitted effect of over 35% in size
# Run Parameters: CellTiter-Glo ATP, 48 h; series mostly up to 45.8 µM
Records with an inconclusive call do not appear. Calls of active or inactive are those of the source. The call rests on the fitted dose curve; in most records, active means well fitted cell-killing curve with a large enough effect; inconclusive means small, poorly fitted or top-dose-only effect, or effect the other way; inactive means no such curve, though single readings can be large or run the other way.
Outcomes you can answer with include only these: yes (1) (active), no (0) (inactive)

Take a look at these entries with their results.
>>> print(df.to_string())
                                   molecule  class_label
0  Clc1ccc(C(c2ccc(Cl)cc2)n2cc[n+](CC(OCc3ccc(Cl)cc3Cl)c3ccc(Cl)cc3Cl)c2)cc1 (configuration not stated)      yes (1)
1  CCC(=O)NC[C@H](Cc1ccc(OCCc2nc(-c3ccccc3)oc2C)cc1)NC(C)=CC(=O)c1ccc(C(F)(F)F)cc1       no (0)
2           NC(=O)NN=Cc1ccc([N+](=O)[O-])o1       no (0)
3  CC(C)(C)NC(=O)Nc1cccc(Nc2ncc(F)c(NC(C)(C)CO)n2)c1       no (0)
4  CC(C)(Cc1ccc2ccccc2c1)NC[C@@H](O)COc1cccc(Cl)c1C#N       no (0)
5  CCCCCNC(=O)N1CCC(CN(Cc2ccc(Cl)cc2)Cc2ccc([N+](=O)[O-])s2)C1 (configuration not stated)      yes (1)

Query molecule follows.
Prompt: Tell me the assay call for O=C(CCCCCCC(=O)Nc1ccccc1)NO please.
Completion: yes (1)

---

The entries below are paired with their reported parasite growth remaining, % of DMSO control (lower = more inhibition).
# Test Name: qHTS profiling of the MIPE4 collection as inhibitors of Plasmodium falciparum (DD2) proliferation (AID 743345)
# Run Parameters: P. falciparum Dd2 in erythrocytes, SYBR Green DNA, 72 h; at 28.5 µM (top of the series) unless noted
Supply the numeric figure in %, leaving out any unit text.

Compound	Observed Result
CON=C(C(=O)N[C@@H]1C(=O)N2C(C(=O)OCOC(=O)C(C)(C)C)=C(C=Cc3scnc3C)CS[C@H]12)c1csc(N)n1	96

Prompt: Looking for the measured parasite growth remaining, % of DMSO control (lower = more inhibition) of COc1ccc2cccc(CCNC(C)=O)c2c1 , can you help?
Completion: 101

Prompt: Looking for the measured parasite growth remaining, % of DMSO control (lower = more inhibition) of CC[C@@]1(O)C[C@H](O[C@H]2C[C@H](N(C)C)[C@H](O[C@H]3C[C@H](O)[C@H](O[C@H]4CCC(=O)[C@H](C)O4)[C@H](C)O3)[C@H](C)O2)c2c(cc3c(c2O)C(=O)c2c(O)cccc2C3=O)[C@@H]1C(=O)OC , can you help?
Completion: 4.79

Prompt: Looking for the measured parasite growth remaining, % of DMSO control (lower = more inhibition) of Nc1ncnc2ccccc12 , can you help?
Completion: 98.4

---

# Test Name: qHTS profiling for inhibitors of Plasmodium falciparum proliferation (AID 504749);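 note: 0% = DMSO vehicle and full inhibition = artemisinin control; nearly all actives have a fitted effect of over 60% in size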
# Run Parameters: P. falciparum in erythrocytes, SYBR Green DNA, 72 h; at 28.7 µM (top of the series); parasite line A
# Method: NIH National Institute of Allergy and Infectious Diseases [NIAID] NIH Chemical Genomics Center [NCGC] […] Because mature erythrocytes lack DNA, only Plasmodium-derived DNA is detected. NCGC Assay Protocol Summary: The SYBR Green viability assay was adapted from a method described previously (Plouffe et al., 2008). […] The following morning, fluorescence intensity at 485(14) nm excitation and 535(25) nm emission wavelengths was measured on an EnVision (Perkin Elmer) plate reader. […]
Records with an inconclusive call do not appear.
Measured Parameter: activity, negative = inhibition (%)
Supply the numeric figure in %, leaving out any unit text.

See these solved cases before continuing.
In [3]: df
Out[3]:
                                   molecule               measured_parameter  observed_result
0  CCN1CCC[C@H]1CNC(=O)c1cc(S(N)(=O)=O)ccc1OC  activity, negative = inhibition             7.08
1  O=C(O)c1c(Cl)c(Cl)c(Cl)c(Cl)c1-c1c2cc(I)c(=O)c(I)c-2oc2c(I)c(O)c(I)cc12  activity, negative = inhibition             1.68
2              C[N+](C)(C)CCCCCC[N+](C)(C)C  activity, negative = inhibition             4.23
3                CCN(CC)CCNC(=O)c1ccc(N)cc1  activity, negative = inhibition             6.98
4    NC(N)=Nc1nc(CSCC/C(N)=N/S(N)(=O)=O)cs1  activity, negative = inhibition              -15

Prompt: Looking for the measured activity, negative = inhibition of Cc1cccc(C)c1OCC(C)N (stereo unspecified) , can you help?
Completion: 7.67
